# assayed-system: human CD33 P132K (human, UniProt P20138 18-364)
# Sequence (P20138 18-364 P132K limits assumed): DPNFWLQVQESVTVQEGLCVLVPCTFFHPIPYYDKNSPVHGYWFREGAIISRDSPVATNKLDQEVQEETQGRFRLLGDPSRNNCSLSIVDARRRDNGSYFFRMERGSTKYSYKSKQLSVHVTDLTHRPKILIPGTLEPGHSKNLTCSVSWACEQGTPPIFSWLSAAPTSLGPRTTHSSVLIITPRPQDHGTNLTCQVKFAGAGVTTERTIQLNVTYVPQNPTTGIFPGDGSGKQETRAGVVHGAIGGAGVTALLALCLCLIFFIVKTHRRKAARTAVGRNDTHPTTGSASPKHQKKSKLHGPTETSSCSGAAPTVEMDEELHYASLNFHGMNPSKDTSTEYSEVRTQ
# run-description: flow cytometry, HEK293-T, IgG;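 also: CD33 point mutants transiently expressed, antibody binding measured by fluorescence in duplicate, background subtracted and scaled to binding on wild-type CD33 as 100%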
experimental-readout: Mean % WT Binding

INSERT INTO measurements (binder, measured_result) VALUES
  ('Refmab #3 (antibody, human IgG1, V domains shown, tested in IgG format) VH: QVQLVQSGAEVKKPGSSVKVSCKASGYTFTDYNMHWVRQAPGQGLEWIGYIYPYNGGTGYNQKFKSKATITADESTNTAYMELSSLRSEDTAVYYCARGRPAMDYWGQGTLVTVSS VL: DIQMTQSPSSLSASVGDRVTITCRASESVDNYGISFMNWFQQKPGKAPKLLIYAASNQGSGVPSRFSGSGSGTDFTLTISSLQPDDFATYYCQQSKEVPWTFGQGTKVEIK', '65 % WT binding'),
  ('Refmab #4 (antibody, human IgG1, V domains shown, tested in IgG format) VH: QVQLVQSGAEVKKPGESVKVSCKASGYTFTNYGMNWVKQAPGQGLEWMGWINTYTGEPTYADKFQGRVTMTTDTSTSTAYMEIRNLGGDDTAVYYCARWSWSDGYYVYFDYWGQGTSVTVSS VL: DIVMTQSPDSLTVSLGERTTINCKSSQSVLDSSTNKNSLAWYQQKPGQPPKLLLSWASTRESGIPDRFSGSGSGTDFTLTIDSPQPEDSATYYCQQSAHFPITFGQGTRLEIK', '102 % WT binding'),
  ('Refmab #1 (antibody, human IgG1, V domains shown, tested in IgG format; also called hP67.6) VH: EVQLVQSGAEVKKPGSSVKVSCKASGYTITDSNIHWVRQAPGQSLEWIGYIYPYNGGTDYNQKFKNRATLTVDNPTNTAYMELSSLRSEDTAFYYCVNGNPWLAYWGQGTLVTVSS VL: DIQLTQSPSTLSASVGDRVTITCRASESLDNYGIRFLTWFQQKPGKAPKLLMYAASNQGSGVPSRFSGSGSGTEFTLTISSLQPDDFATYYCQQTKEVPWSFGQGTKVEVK', '99.6 % WT binding'),
  ('Refmab #2 (antibody, human IgG1, V domains shown, tested in IgG format) VH: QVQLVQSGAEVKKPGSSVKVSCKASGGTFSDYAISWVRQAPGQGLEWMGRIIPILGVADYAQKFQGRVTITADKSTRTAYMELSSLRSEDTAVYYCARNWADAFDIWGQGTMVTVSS VL: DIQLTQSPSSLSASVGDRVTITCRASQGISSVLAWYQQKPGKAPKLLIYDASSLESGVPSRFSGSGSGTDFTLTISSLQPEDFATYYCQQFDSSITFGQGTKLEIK', '119 % WT binding');

Every entry's value here was drawn from patent US20260242735A1.
